Hey, just so you know, these numbers are from ChEMBL document CHEMBL1158850.

So I've got a bunch of compounds here, and I need their pIC50 values.
test_system: Xanthine dehydrogenase/oxidase (Homo sapiens, UniProt P47989)
Sequence (P47989 whole entry): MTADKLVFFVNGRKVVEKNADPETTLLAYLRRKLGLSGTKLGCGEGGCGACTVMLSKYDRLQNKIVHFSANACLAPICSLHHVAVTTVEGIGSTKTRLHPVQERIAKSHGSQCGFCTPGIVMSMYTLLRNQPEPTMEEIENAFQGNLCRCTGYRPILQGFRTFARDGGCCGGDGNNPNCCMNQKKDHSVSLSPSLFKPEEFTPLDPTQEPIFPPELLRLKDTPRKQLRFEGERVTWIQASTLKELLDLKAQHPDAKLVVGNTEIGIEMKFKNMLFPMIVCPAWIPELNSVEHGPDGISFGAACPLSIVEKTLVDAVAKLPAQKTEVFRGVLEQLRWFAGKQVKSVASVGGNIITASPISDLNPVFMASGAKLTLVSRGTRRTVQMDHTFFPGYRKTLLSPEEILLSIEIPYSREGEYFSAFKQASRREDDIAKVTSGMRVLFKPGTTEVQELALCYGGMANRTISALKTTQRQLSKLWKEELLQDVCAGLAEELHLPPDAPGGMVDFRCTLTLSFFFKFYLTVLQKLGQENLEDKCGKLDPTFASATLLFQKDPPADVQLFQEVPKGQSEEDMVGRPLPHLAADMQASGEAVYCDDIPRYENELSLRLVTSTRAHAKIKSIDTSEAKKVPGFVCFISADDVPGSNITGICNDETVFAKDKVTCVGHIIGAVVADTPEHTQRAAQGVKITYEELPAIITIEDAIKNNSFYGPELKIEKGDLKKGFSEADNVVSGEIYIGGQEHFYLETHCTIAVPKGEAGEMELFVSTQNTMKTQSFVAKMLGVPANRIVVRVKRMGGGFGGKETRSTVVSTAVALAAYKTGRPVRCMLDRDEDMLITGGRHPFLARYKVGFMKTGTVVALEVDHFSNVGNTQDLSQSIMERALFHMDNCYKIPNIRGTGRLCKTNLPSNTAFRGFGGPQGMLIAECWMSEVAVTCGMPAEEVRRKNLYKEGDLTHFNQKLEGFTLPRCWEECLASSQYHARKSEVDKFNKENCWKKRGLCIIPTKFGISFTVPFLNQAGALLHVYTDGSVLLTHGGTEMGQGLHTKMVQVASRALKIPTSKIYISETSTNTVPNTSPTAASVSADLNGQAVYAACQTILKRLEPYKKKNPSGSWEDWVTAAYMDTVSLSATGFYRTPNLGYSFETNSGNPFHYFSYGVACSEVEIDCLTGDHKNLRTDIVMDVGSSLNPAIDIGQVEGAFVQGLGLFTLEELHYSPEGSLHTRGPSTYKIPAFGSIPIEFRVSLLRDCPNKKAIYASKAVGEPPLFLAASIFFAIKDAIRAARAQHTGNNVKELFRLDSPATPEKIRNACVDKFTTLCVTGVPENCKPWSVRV
run_description: Inhibition of xanthine oxidase assessed as decrease in uric acid production by spectrophotometry
To interpret pIC50, take it as minus log10 of a concentration measured in moles per litre.

-- ask Reported pIC50, compound `O=c1cc(-c2ccccc2)oc2cc(O)cc(O)c12` : ____
-- reply 6.08

-- ask If you can, please state the reported pIC50 value of O=c1cc(-c2ccccc2)oc2cc(O)ccc12 [7-HYDROXYFLAVONE] .
-- reply 4.42

-- ask Fill in the blank: the reported pIC50 of `O=c1cc(-c2ccc(O)cc2)oc2cc(O)cc(O)c12` is ____.
-- reply 6.15

-- ask // returns reported pIC50 for input `O=c1c(O)c(-c2ccc(O)cc2O)oc2cc(O)cc(O)c12`
-- reply 5.00

-- ask Given the compound `COc1cc(-c2oc3cc(O)cc(O)c3c(=O)c2O)ccc1O` , what is its reported pIC50?
-- reply 5.60

-- ask Consider the compound shown here: `COc1cc(O)c2c(=O)c(O)c(-c3ccc(OC)c(O)c3)oc2c1` What is its recorded pIC50?
-- reply 5.11

-- ask Could you share which pIC50 value was measured for `O=c1c(O)c(-c2ccccc2)oc2cc(O)cc(O)c12` ?
-- reply 5.74

-- ask What value of pIC50 has been reported for the following compound? `O=c1c(O)c(-c2ccc(O)c(O)c2)oc2cc(O)ccc12`
-- reply 5.36

-- ask Entry under review: `O=c1cc(-c2ccccc2)oc2cc(O)c(O)c(O)c12` . Reported pIC50?
-- reply 5.55

-- ask Return reported pIC50; argument: `O=c1cc(-c2ccc(O)c(O)c2)oc2cc(O)cc(O)c12`
-- reply 6.26

-- ask Recorded pIC50 for C[C@@H]1O[C@@H](OC[C@H]2O[C@@H](Oc3c(-c4ccc(O)cc4)oc4cc(O)cc(O)c4c3=O)[C@H](O)[C@@H](O)[C@@H]2O)[C@H](O)[C@H](O)[C@H]1O [NICOTIFLOROSIDE] , please?
-- reply 4.83

-- ask Tell me the measured pIC50 of `O=c1c(O)c(-c2ccc(O)cc2)oc2cc(O)cc(O)c12` , please.
-- reply 5.97

-- ask # lookup: pIC50 of `C[C@@H]1O[C@@H](OC[C@H]2O[C@@H](Oc3c(-c4ccc(O)c(O)c4)oc4cc(O)cc(O)c4c3=O)[C@H](O)[C@@H](O)[C@@H]2O)[C@H](O)[C@H](O)[C@H]1O`
-- reply 4.28

-- ask Would you mind telling me what pIC50 value was observed for `O=c1c(O)c(-c2cc(O)c(O)c(O)c2)oc2cc(O)cc(O)c12` ?
-- reply 5.62

-- ask Consider the compound `C[C@@H]1O[C@@H](O[C@H]2[C@H](Oc3cc(O)c4c(=O)cc(-c5ccc(O)c(O)c5)oc4c3)O[C@H](CO)[C@@H](O)[C@@H]2O)[C@H](O)[C@H](O)[C@H]1O` and give its measured pIC50.
-- reply 4.92

###

What IC50 was measured for each of the following?
test_system: Xanthine dehydrogenase/oxidase (Homo sapiens, UniProt P47989)
run_description: Inhibition of xanthine oxidase assessed as decrease in uric acid production by spectrophotometry

-- ask Give Xanthine dehydrogenase/oxidase (Homo sapiens, UniProt P47989) IC50 for `COc1cc2oc(-c3ccc(O[C@@H]4O[C@H](CO)[C@@H](O)[C@H](O)[C@H]4O)cc3)cc(=O)c2c(O)c1OC`
-- reply > 100 µM

-- ask Request body: readout IC50, system Xanthine dehydrogenase/oxidase (Homo sapiens, UniProt P47989), query `O=c1c(O)c(-c2ccccc2)oc2ccccc12` . Return the value.
-- reply > 100 µM

-- ask Give the reported IC50 for `COc1ccc(-c2cc(=O)c3c(OC)c(OC)c(OC)c(OC)c3o2)cc1OC` (system: Xanthine dehydrogenase/oxidase (Homo sapiens, UniProt P47989)).
-- reply > 100 µM

-- ask // fetch Xanthine dehydrogenase/oxidase (Homo sapiens, UniProt P47989) IC50 for `Oc1cc(O)c2c(c1)O[C@H](c1ccc(O)c(O)c1)[C@@H](O)C2`
-- reply > 100 µM

-- ask Item: `C[C@@H]1O[C@@H](Oc2c(-c3ccc(O)c(O)c3)oc3cc(O)cc(O)c3c2=O)[C@H](O)[C@H](O)[C@H]1O` Test system: Xanthine dehydrogenase/oxidase (Homo sapiens, UniProt P47989) Read-out: IC50 Value: ?
-- reply > 100 µM

-- ask Provide value of IC50 for this record tested with Xanthine dehydrogenase/oxidase (Homo sapiens, UniProt P47989): `COc1ccc(-c2cc(=O)c3c(OC)c(OC)c(OC)c(OC)c3o2)cc1`
-- reply > 100 µM

-- ask Find IC50 (Xanthine dehydrogenase/oxidase (Homo sapiens, UniProt P47989)) for the entry Oc1cc(O)c2c(c1)O[C@H](c1cc(O)c(O)c(O)c1)[C@H](O)C2 [EPIGALLOCATECHIN]
-- reply > 100 µM

-- ask What IC50 appears in the records for this compound with Xanthine dehydrogenase/oxidase (Homo sapiens, UniProt P47989)? COc1cc(-c2cc(=O)c3c(O)cc(O[C@@H]4O[C@H](CO)[C@@H](O)[C@H](O)[C@H]4O[C@@H]4O[C@@H](C)[C@H](O)[C@@H](O)[C@H]4O)cc3o2)ccc1O [CHRYSOERIOL-7-O-NEOHESPERIDOSIDE]
-- reply > 100 µM

-- ask Identify the measured IC50 of O=C(/C=C/c1ccc(O)cc1)OC[C@H]1O[C@@H](Oc2c(-c3ccc(O)cc3)oc3cc(O)cc(O)c3c2=O)[C@H](O)[C@@H](O)[C@@H]1O [TILIROSIDE] for Xanthine dehydrogenase/oxidase (Homo sapiens, UniProt P47989).
-- reply > 100 µM

-- ask What IC50 appears in the records for this compound with Xanthine dehydrogenase/oxidase (Homo sapiens, UniProt P47989)? `O=C1C[C@@H](c2ccc(O)cc2)Oc2cc(O)cc(O)c21`
-- reply > 50 µM

-- ask Give IC50 (Xanthine dehydrogenase/oxidase (Homo sapiens, UniProt P47989)) of the following compound: Oc1cc(O)c2c(c1)O[C@H](c1ccc(O)c(O)c1)[C@H](O)C2 [(-)-EPICATECHIN]
-- reply > 100 µM

-- ask Query the reported IC50 for Xanthine dehydrogenase/oxidase (Homo sapiens, UniProt P47989); item: O=C1CC(c2ccc(O)cc2)Oc2ccccc21 (configuration not stated) [4'-HYDROXY-FLAVANONE]
-- reply > 30 µM
